- Experimental target: human TRPM8 (Homo sapiens)
- Construct: expressed in transfected cells; host or cells: Chinese hamster ovary (CHO) cells, T-REx tetracycline-inducible expression system (Invitrogen); co-transfected with pcDNA3.1 aequorin
- Sequence (Q7Z2W7 whole entry): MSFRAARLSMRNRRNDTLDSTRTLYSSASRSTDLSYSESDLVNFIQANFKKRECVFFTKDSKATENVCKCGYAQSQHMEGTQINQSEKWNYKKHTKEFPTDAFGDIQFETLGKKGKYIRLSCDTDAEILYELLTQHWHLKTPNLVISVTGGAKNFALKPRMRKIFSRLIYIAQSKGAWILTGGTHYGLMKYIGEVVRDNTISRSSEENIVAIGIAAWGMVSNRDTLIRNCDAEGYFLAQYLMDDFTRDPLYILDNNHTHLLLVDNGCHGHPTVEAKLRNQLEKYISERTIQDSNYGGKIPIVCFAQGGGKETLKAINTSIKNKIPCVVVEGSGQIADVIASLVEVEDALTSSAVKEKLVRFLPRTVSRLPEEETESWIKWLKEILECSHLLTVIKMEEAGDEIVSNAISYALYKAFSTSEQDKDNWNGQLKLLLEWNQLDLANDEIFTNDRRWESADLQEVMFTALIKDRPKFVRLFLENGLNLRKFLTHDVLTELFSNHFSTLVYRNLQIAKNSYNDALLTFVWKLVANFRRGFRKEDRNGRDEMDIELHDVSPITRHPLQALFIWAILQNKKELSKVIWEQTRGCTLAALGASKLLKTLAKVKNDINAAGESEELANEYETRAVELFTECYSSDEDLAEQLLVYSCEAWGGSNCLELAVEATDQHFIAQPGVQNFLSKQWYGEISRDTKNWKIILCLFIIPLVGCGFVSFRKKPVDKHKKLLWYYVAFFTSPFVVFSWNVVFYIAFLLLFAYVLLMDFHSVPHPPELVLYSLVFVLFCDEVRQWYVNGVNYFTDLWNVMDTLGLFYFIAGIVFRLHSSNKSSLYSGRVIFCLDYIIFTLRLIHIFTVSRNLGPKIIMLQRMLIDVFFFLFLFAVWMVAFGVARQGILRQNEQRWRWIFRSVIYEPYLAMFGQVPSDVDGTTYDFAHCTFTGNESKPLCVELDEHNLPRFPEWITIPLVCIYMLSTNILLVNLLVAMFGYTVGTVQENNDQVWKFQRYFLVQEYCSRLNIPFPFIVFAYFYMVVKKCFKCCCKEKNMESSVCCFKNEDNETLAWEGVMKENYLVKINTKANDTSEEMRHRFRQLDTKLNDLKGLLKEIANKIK
- Test summary: Luminescence readout assay for measuring intracellular calcium (aequorin, CHO cells expressing human TRPM8; icilin, L-menthol or cold activation)
- Type: cell-based
- Recorded conditions: CHO cells expressing human TRPM8, icilin activation (1 μM), aequorin luminescence; read-out: hTRPM8 IC50
Structures can show the parent of a compound that is named as a salt.
Provide the reported pIC50 of each item.
Lab note — pIC50 values are minus log10 of concentrations in M.

Reported pIC50 for Cc1cc([C@@]2(NC(=O)c3ccc(=O)[nH]c3)CCOc3cccnc32)ccc1OC(F)(F)F : what is it?
7.92

Here is the next compound: COc1ccc2cc(C(=O)N[C@]3(c4ccc(OC(F)(F)F)cc4)CCOc4cccnc43)cnc2c1 [Example 225, formate]
7.92

Continue with O=C(N[C@]1(c2ccc(C(F)(F)F)cc2)CCOc2cccnc21)c1ccc(O)cn1
8.15

Try this compound too: O=C(N[C@]1(c2ccc(OC(F)(F)F)cc2)CCOc2cccnc21)c1ccns1 [Example 213, formate]
7.09

Consider next the compound O=C(N[C@]1(c2ccc(OC(F)(F)F)cc2)CCOc2cccnc21)c1c[nH]c2ncccc12 in the same way.
7.34

Similarly, COC(=O)c1cccc(S(=O)(=O)N[C@]2(c3ccc(OC(F)(F)F)c(F)c3)CCOc3cccnc32)c1 ?
6.75

Same question, O=C(Nc1cc(F)c(O)c(F)c1)N[C@]1(c2ccc(OC(F)(F)F)c(F)c2)CCOc2cccnc21 this time
6.80

Queued: CS(=O)(=O)Nc1ccc(C(=O)N[C@]2(c3ccc(OC(F)(F)F)c(F)c3)CCOc3cccnc32)nc1
7.92

Ok, now CC(C)(C)[S@@+]([O-])N[C@]1(c2ccc(OC(F)(F)F)c(F)c2)CCOc2cccnc21
5.62

Now consider O=C(N[C@]1(c2ccc(C(F)(F)F)cc2)CCOc2cccnc21)c1ccc2cccnc2c1 and answer again.
7.68

Input O=C(N[C@]1(c2ccc(C(F)(F)F)cc2)CCOc2cccnc21)c1ccc2cn[nH]c2c1
7.62

Now try Cc1cc(C(=O)N[C@]2(c3ccc(OC(F)(F)F)c(F)c3)CCOc3cccnc32)ncc1Br .
8.00

Ok, now COC(=O)c1ccccc1NC(=O)N[C@]1(c2ccc(OC(F)(F)F)c(F)c2)CCOc2cccnc21
7.72

Try O=C(O)c1ccc(C(=O)N[C@]2(c3ccc(OC(F)(F)F)cc3)CCOc3cccnc32)nc1 next.
7.64

// query: O=C(N[C@]1(c2ccc(OC(F)(F)F)c(F)c2)CCOc2cccnc21)c1ccc(C(=O)O)c(O)c1
7.64

Field entry: COC(=O)c1ccc(C(=O)N[C@]2(c3ccc(C(F)(F)F)c(F)c3)CCOc3cccnc32)nc1
7.66

What about this compound? Cn1c(C(=O)N[C@]2(c3ccc(OC(F)(F)F)c(F)c3)CCOc3cccnc32)cnc1Br
7.49

What would you report for CCOC(=O)c1cc(C(=O)N[C@]2(c3ccc(OC(F)(F)F)c(F)c3)CCOc3cccnc32)c[nH]1 ?
7.27

Please answer likewise for COc1ccc(C(=O)O)cc1C(=O)N[C@]1(c2ccc(OC(F)(F)F)c(F)c2)CCOc2cccnc21
7.05

Let us now turn to O=C(NC1(c2ccccc2)CCOc2cccnc21)c1ccc2[nH]c(=O)oc2c1 (stereo not drawn)
7.85

Note, next up: Cc1ccncc1-c1ccc([C@@]2(NC(=O)c3ccc(F)cc3)CCOc3cccnc32)cc1
6.67

Further, for Cn1c(C(=O)N[C@]2(c3ccc(OC(F)(F)F)cc3)CCOc3cccnc32)nc2ccccc21 [Example 260, formate] ?
7.49

Also O=C(N[C@]1(c2ccc(OC(F)(F)F)cc2)CCOc2cccnc21)c1ccc2c(=O)[nH]ccc2c1 [Example 223, formate] ?
8.00

Okay, and C[C@H](NC(=O)N[C@]1(c2ccc(C(F)(F)F)cc2)CCOc2cccnc21)C(F)(F)F [Example 67, 2,2,2-trifluoroacetate] ?
6.53

Same for O=C(N[C@]1(c2ccc(C(F)(F)F)cc2)CCOc2cccnc21)c1ccc2oc(=O)[nH]c2c1
8.22

Another compound to check: O=S(=O)(N[C@]1(c2ccc(OC(F)(F)F)c(F)c2)CCOc2cccnc21)c1cccnc1 [Example 77, 2,2,2-trifluoroacetate]
5.87

Now this one: CC(C)c1cc(C(=O)N[C@]2(c3ccc(OC(F)(F)F)c(F)c3)CCOc3cccnc32)ccc1C(=O)O
7.85

And for O=C(NC1(c2ccc(C(F)(F)F)nc2)CCOc2cccnc21)c1ccccc1 (stereo not drawn) ?
6.05

Moving on to the next compound: O=C(N[C@]1(c2ccc(C(F)(F)F)cc2)CCOc2cccnc21)c1ccc(O)cc1 (single isomer, unassigned)
8.05

Next up: COc1ccncc1-c1ccc([C@@]2(NC(=O)c3ccc(F)cc3)CCOc3cccnc32)cc1
6.00
